Entries and their measured C50 follow.
Tgt: HLA-A2 (human)
Test Method Notes: assembly assay: peptide stabilisation of HLA-A2 from T2 lysate, W6/32 immunoprecipitation
// note: answer is a bare numeric in µM

Consider the reported C50 for these binders:
# Binder, Scale Unit, C50
records = [
    ("AAAGPALSPV (The end of the range is worked out from the printed start and the peptide length) [bcl80]", "µM", 36),
    ("ALSPVPPVV (The end of the range is worked out from the printed start and the peptide length) [Bcl85]", "µM", 1),
    ("PLFDFSWLSL (The end of the range is worked out from the printed start and the peptide length) [bcl208]", "µM", 7),
    ("LLSLALVGA (The end of the range is worked out from the printed start and the peptide length) [bcl220]", "µM", 1),
]

Report C50 for ALVGACITL (The end of the range is worked out from the printed start and the peptide length) [Bcl224]
0.7

Report C50 for KTLLSLALV (The end of the range is worked out from the printed start and the peptide length) [bcl218]
2

Report C50 for YLNRHLHTWI (The end of the range is worked out from the printed start and the peptide length) [bcl180]
15

Every entry's value here was drawn from patent US20080050396A1.
